These data points were gathered from PubChem BioAssay (NCI).

System: A549/ATCC NSCLC
Assay: NCI-60 one-dose screen, 48 h (100 = growth as untreated, 0 = no growth, -100 = all killed)
Details: 10 µM unless noted
The panel holds about 83,000 compounds, 20% with a hit somewhere; the sample as a whole holds those more often.
Entries and their growth values follow.
Readout Type: growth (%)

{"Compound": "COC(=O)CNC(=O)C(=O)c1c(O)c(O)c(C(C)C)c2cc(C)c(-c3c(C)cc4c(C(C)C)c(O)c(O)c(C(=O)C(=O)NCC(=O)OC)c4c3O)c(O)c12", "Experimental System": "A549/ATCC NSCLC", "Readout Type": "growth", "Test Value": 11}
{"Compound": "COc1cc(-c2cc(-c3ccc(Nc4nc(Nc5ccccc5)nc(Nc5ccc(Cl)cc5)n4)cc3)nc(N)n2)cc(OC)c1OC", "Experimental System": "A549/ATCC NSCLC", "Readout Type": "growth", "Test Value": 79.3}
{"Compound": "Cc1nc(-c2ccccc2)cc2c(O)c(C(=O)N/N=C/c3ccc(N(C)C)cc3)[nH]c(=O)c12", "Experimental System": "A549/ATCC NSCLC", "Readout Type": "growth", "Test Value": 40.5}
{"Compound": "CCCCCCNC(=O)c1cc(NCc2cc(O)ccc2O)ccc1O", "Experimental System": "A549/ATCC NSCLC", "Readout Type": "growth", "Test Value": 70.5}
{"Compound": "Cc1nc2ccc(C(=O)NCc3cc(C(=O)O)c(C)o3)cc2nc1C", "Experimental System": "A549/ATCC NSCLC", "Readout Type": "growth", "Test Value": 91.4}
{"Compound": "Cc1cc(N(CCCNc2ccnc3cc(Cl)ccc23)Cc2ccccn2)nc(N2CCOCC2)n1", "Experimental System": "A549/ATCC NSCLC", "Readout Type": "growth", "Test Value": 86.4}
{"Compound": "Nc1ccc2c(S(=O)(=O)O)ccc(S(=O)(=O)O)c2c1", "Experimental System": "A549/ATCC NSCLC", "Readout Type": "growth", "Test Value": 92.6}
{"Compound": "CC(=O)Nc1ccc2c(c1)Cc1c(F)cccc1-2", "Experimental System": "A549/ATCC NSCLC", "Readout Type": "growth", "Test Value": 92}
{"Compound": "Cc1c(C(=O)O)nnn1-c1nccs1", "Experimental System": "A549/ATCC NSCLC", "Readout Type": "growth", "Test Value": 79.2}
{"Compound": "C=C1C(=O)O[C@H]2[C@H]1CC/C(COC(=O)NCc1ccc(Cn3c(=O)sn(CCCCl)c3=O)cc1)=C\\CC[C@@]1(C)O[C@@H]21", "Experimental System": "A549/ATCC NSCLC", "Readout Type": "growth", "Test Value": 90.5}
{"Compound": "COc1ccc(O)c(-c2cc(-c3ccccc3)c(C#N)c(=O)[nH]2)c1", "Experimental System": "A549/ATCC NSCLC", "Readout Type": "growth", "Test Value": 84.1}
{"Compound": "c1ccc([P+](CCCc2n(Cc3ccc4ccccc4c3)c3ccccc3[n+]2Cc2ccc3ccccc3c2)(c2ccccc2)c2ccccc2)cc1", "Experimental System": "A549/ATCC NSCLC", "Readout Type": "growth", "Test Value": 80.2}
{"Compound": "O=C1NCC(=O)N(Cc2ccco2)[C@H]1Cc1ccccc1", "Experimental System": "A549/ATCC NSCLC", "Readout Type": "growth", "Test Value": 102}
{"Compound": "C=C1c2c(C)nn(-c3ccc(S(N)(=O)=O)cc3)c2N(C)C23CC1C1(C)c4c(C)nn(-c5ccc(S(N)(=O)=O)cc5)c4N(C)C(C)(CC12)C3 (stereo not given)", "Experimental System": "A549/ATCC NSCLC", "Readout Type": "growth", "Test Value": 17.6}
{"Compound": "Cc1cc(Cl)nc(N(CCCNc2ccnc3cc(Cl)ccc23)Cc2ccccn2)n1", "Experimental System": "A549/ATCC NSCLC", "Readout Type": "growth", "Test Value": 56.1}
{"Compound": "Cc1cc2c(F)c(Oc3ncnc(Nc4ccc(N5C[C@@H](C)N[C@@H](C)C5)cc4)c3C#N)cc(F)c2[nH]1", "Experimental System": "A549/ATCC NSCLC", "Readout Type": "growth", "Test Value": 13.7}
{"Compound": "CN(C)c1ccc(/C=N/NC(=O)COc2cc(=O)n(C)c3ccccc23)cc1", "Experimental System": "A549/ATCC NSCLC", "Readout Type": "growth", "Test Value": 110}
{"Compound": "COc1cccc(-c2nc3sccn3c2-c2ccnc(NCCNS(=O)(=O)c3c(Cl)cccc3Cl)c2)c1", "Experimental System": "A549/ATCC NSCLC", "Readout Type": "growth", "Test Value": 47.1}
{"Compound": "CCCCCCNCc1cc(C(C)(C)C)cc(CNCCCCCC)c1O", "Experimental System": "A549/ATCC NSCLC", "Readout Type": "growth", "Test Value": -85.4}
{"Compound": "CCOc1cccnc1/C=N/NC(N)=S", "Experimental System": "A549/ATCC NSCLC", "Readout Type": "growth", "Test Value": 48}
{"Compound": "N=C(N)c1ccc(-c2ccc(-c3ccc(Cl)cc3Cl)o2)nc1", "Experimental System": "A549/ATCC NSCLC", "Readout Type": "growth", "Test Value": 6.38}
{"Compound": "COc1ccc(N=c2nc3sc4cc(Cl)ccc4n3c(N)c2C#N)cc1", "Experimental System": "A549/ATCC NSCLC", "Readout Type": "growth", "Test Value": 62.4}
{"Compound": "COc1ccc(/C=C2\\COc3ccc(O)cc3C2=O)c(OC)c1", "Experimental System": "A549/ATCC NSCLC", "Readout Type": "growth", "Test Value": 51.6}
{"Compound": "O=C(/C=C/C12c3ccccc3C(c3ccccc31)C1C(=O)NC(=O)C12)c1ccccc1 (stereo not given)", "Experimental System": "A549/ATCC NSCLC", "Readout Type": "growth", "Test Value": 26.3}
{"Compound": "CCOC(=O)c1nnn(C(Cc2ccccc2Cl)C(=O)OCC)c1C (stereo not given)", "Experimental System": "A549/ATCC NSCLC", "Readout Type": "growth", "Test Value": 82.6}
{"Compound": "Cc1nn(-c2ccccc2)c2c1C(c1ccc([N+](=O)[O-])cc1)C(C#N)=C(N)O2 (stereo not given)", "Experimental System": "A549/ATCC NSCLC", "Readout Type": "growth", "Test Value": 102}
{"Compound": "COc1cc2c(cc1OC)-c1ccc3cc4c(cc3c1N(CCN1CCCC1)C2)OCO4", "Experimental System": "A549/ATCC NSCLC", "Readout Type": "growth", "Test Value": 5.78}
{"Compound": "CN1CCN(c2ccc3nc(/N=C/c4ccc5sc(-c6ccc([N+](=O)[O-])cc6)nc5c4)sc3c2)CC1", "Experimental System": "A549/ATCC NSCLC", "Readout Type": "growth", "Test Value": 98.6}
{"Compound": "C=C(C=O)[C@@H]1CC=C(C=O)CC1", "Experimental System": "A549/ATCC NSCLC", "Readout Type": "growth", "Test Value": 15.6}
{"Compound": "CN(C)c1ccc2cc(-c3ccc(Cl)c(Cl)c3)c(N)nc2c1", "Experimental System": "A549/ATCC NSCLC", "Readout Type": "growth", "Test Value": 32.9}
{"Compound": "O=C1C(Cl)C(c2ccccc2Cl)N1n1cnnc1 (stereo not given)", "Experimental System": "A549/ATCC NSCLC", "Readout Type": "growth", "Test Value": 91.1}
{"Compound": "COc1ccc(/C=C2\\COc3ccc(O)cc3C2=O)cc1OC", "Experimental System": "A549/ATCC NSCLC", "Readout Type": "growth", "Test Value": 91.2}
{"Compound": "CCCc1cc(=O)oc2c3c(c4c(c12)OC(C)(C)C=C4)O[C@@H](C)[C@H](C)C3=O", "Experimental System": "A549/ATCC NSCLC", "Readout Type": "growth", "Test Value": 64.5}
{"Compound": "O=S(=O)(Nc1ccsc1-c1nc(-c2ccccc2)no1)c1cc(Cl)cc(Cl)c1", "Experimental System": "A549/ATCC NSCLC", "Readout Type": "growth", "Test Value": 90}
{"Compound": "CNC=O", "Experimental System": "A549/ATCC NSCLC", "Readout Type": "growth", "Test Value": 88.8}
{"Compound": "Cc1nc(Nc2ccc(S(=O)(=O)Nc3cc(C)on3)cc2)c2ccccc2n1", "Experimental System": "A549/ATCC NSCLC", "Readout Type": "growth", "Test Value": 108}
{"Compound": "COc1ccc(-c2nc3ncccn3c2/C=C/C(=O)c2cc(OC)c(OC)c(OC)c2)cc1", "Experimental System": "A549/ATCC NSCLC", "Readout Type": "growth", "Test Value": 10.2}
{"Compound": "NC(N)=N/N=C(/c1ccccc1)c1ccccc1F", "Experimental System": "A549/ATCC NSCLC", "Readout Type": "growth", "Test Value": 28.4}
{"Compound": "O=C1C2=C(CCN(Cc3ccccc3)C2)N2CCN=C2N1Cc1ccc(F)cc1F", "Experimental System": "A549/ATCC NSCLC", "Readout Type": "growth", "Test Value": 26.7}
{"Compound": "O=c1ccn(C2OC(F)(CO)C(O)C2F)c(=O)[nH]1 (stereo not given)", "Experimental System": "A549/ATCC NSCLC", "Readout Type": "growth", "Test Value": 104}
